Target: T1, human PD-1 (human, UniProt Q15116 25-167, limits assumed)
T1 construct: also called hPD-1
T1 sequence (Q15116 25-167 limits assumed): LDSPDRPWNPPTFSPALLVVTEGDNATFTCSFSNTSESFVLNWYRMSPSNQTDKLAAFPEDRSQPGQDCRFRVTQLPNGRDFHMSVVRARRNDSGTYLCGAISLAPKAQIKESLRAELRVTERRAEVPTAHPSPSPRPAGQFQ
Test: Biacore and cell-based assays, calibrated by wildtype nivolumab binding affinity
pKd: −log10 of the molar value.
Recorded pKd, one value per entry.

binder	pKd
anti-PD-1 antibody HC-CDR3(D100R) (antibody, V domains shown, constant parts as m82) VH: QVQLVESGGGVVQPGRSLRLDCKASGITFSNSGMHWVRQAPGKGLEWVAVIWYDGSKRYYADSVKGRFTISRDNSKNTLFLQMNSLRAEDTAVYYCATNRDYWGQGTLVTVSS VL: EIVLTQSPATLSLSPGERATLSCRASQSVSSYLAWYQQKPGQAPRLLIYDASNRATGIPARFSGSGSGTDFTLTISSLEPEDFAVYYCQQSSNWPRTFGQGTKVEIKR	6.04
anti-PD-1 antibody HC-CDR3(D100G) (antibody, V domains shown, constant parts as m82) VH: QVQLVESGGGVVQPGRSLRLDCKASGITFSNSGMHWVRQAPGKGLEWVAVIWYDGSKRYYADSVKGRFTISRDNSKNTLFLQMNSLRAEDTAVYYCATNGDYWGQGTLVTVSS VL: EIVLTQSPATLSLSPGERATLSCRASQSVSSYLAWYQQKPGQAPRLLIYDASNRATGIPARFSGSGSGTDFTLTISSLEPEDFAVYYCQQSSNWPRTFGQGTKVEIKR	6.89
anti-PD-1 antibody HC-CDR3(N99G) (antibody, V domains shown, constant parts as m82) VH: QVQLVESGGGVVQPGRSLRLDCKASGITFSNSGMHWVRQAPGKGLEWVAVIWYDGSKRYYADSVKGRFTISRDNSKNTLFLQMNSLRAEDTAVYYCATGDDYWGQGTLVTVSS VL: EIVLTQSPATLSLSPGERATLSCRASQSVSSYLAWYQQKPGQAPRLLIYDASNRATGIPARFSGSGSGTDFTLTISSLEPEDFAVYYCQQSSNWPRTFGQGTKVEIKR	5.64
anti-PD-1 antibody HC-CDR3(D100N) (antibody, V domains shown, constant parts as m82) VH: QVQLVESGGGVVQPGRSLRLDCKASGITFSNSGMHWVRQAPGKGLEWVAVIWYDGSKRYYADSVKGRFTISRDNSKNTLFLQMNSLRAEDTAVYYCATNNDYWGQGTLVTVSS VL: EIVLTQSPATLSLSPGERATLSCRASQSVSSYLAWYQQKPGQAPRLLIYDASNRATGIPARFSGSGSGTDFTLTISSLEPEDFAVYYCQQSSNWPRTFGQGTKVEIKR	7.60

The values you see were collected from patent US20240392004A1.
